Biological target: H-NS (Salmonella enterica serovar Typhimurium (LT2 reference genome; SL1344 also used)) (UniProt P0A1S2)
Sequence: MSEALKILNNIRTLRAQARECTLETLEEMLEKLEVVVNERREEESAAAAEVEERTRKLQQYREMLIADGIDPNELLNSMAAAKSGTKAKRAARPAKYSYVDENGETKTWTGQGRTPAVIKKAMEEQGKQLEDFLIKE
Assay: EMSA
Settings: ITC: 25 mM Tris-HCl, 150 mM NaCl, pH 7.5, 20 C, 100 uM DNA into 10 uM protein; EMSA: 20 mM Tris-HCl, 4 mM MgCl2, 100 mM NaCl, 1 mM DTT, 1% NP-40, 10% glycerol …
OUTCOME_MEASURE: binding

Q. binding lookup needed for TTCCATGTGTTATGCCTTGTGACATAAAAATTCATAAAAATAATGCATCAATGCATATAAATATATAAACAATTCTTTATTGATAGCCTCGAAAAAATATCGAAACAAAACAATGATACAGATCAGGGACTAATTAGCAACTAAGCCGTTAATATTAAATAATCAATGAACAGCAAGATAAAAA (double strand) [PclpV] , thanks.
A. binds

Q. binding lookup needed for ATGTTTCATGGATTTCCCTTGAATTACACACACCCGGTTTCGGCATCCTGTCGGCTCCGTTTGAATTATTATCGACATAGCATGTCAGAAAAGTTATCTCTGCATCCTGTAAAGATAGATATCGCAGATTAATTAGTTTTCTGTTTCTCCCCTGAGTATCAGACGCAGTAATTAATCTTTGCGAATATGACATTTCGTCACGGTAATAAATTAAACATTTCGCTAAATAAAAAATAGCCG (double strand) [PfimA] , thanks.
A. binds

Q. binding lookup needed for CAAAACTCATGGTAGTGACTCCTTTAATACCGGATTAAAATAAATAGACTCACCGTCAGGAAACAGTGCCCCGCACTTTATAATGCAACCAGCCTGTTATATTTAAATATTTACCAGAAGAACAGGGTATATTGCTGACAAGAGCCATGAAAATAAAAACACAAAAATTAGCACATAACATAAATACTGAATTACATAAATAAGGAAATGAACATAACAATA (double strand) [PvgrG] , thanks.
A. binds

* * *

Target: H-NS (Salmonella enterica serovar Typhimurium (LT2 reference genome; SL1344 also used))
Sequence: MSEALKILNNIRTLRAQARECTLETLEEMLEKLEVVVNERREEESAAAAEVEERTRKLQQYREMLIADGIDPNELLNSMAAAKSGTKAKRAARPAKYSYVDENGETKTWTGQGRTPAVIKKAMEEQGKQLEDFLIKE
Test: EMSA
Settings: ITC: 25 mM Tris-HCl, 150 mM NaCl, pH 7.5, 20 C, 100 uM DNA into 10 uM protein; EMSA: 20 mM Tris-HCl, 4 mM MgCl2, 100 mM NaCl, 1 mM DTT, 1% NP-40, 10% glycerol …
OUTCOME_MEASURE: binding

Q. binding lookup needed for TAATCGATGGTGTTATCATTAGGAAGATAAATTTCTTCATATATAACCCAGTCGATGACTACAATTACTTTTTAATAAGATGGCGATGTAAAAACATCGTAACAGTTTATTTAATAAATAATTTTTCAAATTGTAAGTTTTTATGTCAATGCTGAAAATGTAATTGTGAATTTATCGGAAAATCCGAATGATAGAATCGCCTGTGACAAGGTATATGTAGACAGCATCCTGATATTGTA (double strand) [PssrAB] , thanks.
A. binds

* * *

Target: StpA (Salmonella enterica, UniProt P0A1S4)
Sequence (P0A1S4 whole entry): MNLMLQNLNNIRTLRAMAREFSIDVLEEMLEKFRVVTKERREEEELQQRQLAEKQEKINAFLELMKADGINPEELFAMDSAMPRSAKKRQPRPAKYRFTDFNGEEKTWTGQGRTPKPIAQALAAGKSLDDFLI
OUTCOME_MEASURE: Kd (µM)
Please give a number only; it is taken to be in µM.

Q. For StpA (Salmonella enterica, UniProt P0A1S4), provide Kd of Nc1nc2c(ncn2[C@@H]2O[C@@H]3CO[P@](=O)(O)O[C@H]4[C@@H](O)[C@H](n5cnc6c(=O)[nH]c(N)nc65)O[C@@H]4CO[P@](=O)(O)O[C@H]3[C@H]2O)c(=O)[nH]1 [c-di-GMP] please.
A. 73

* * *

Biological target: H-NS (Salmonella enterica, UniProt A0A0H3NBY9)
OUTCOME_MEASURE: Kd (µM)
Please give a number only; it is taken to be in µM.

Q. For H-NS (Salmonella enterica, UniProt A0A0H3NBY9), provide Kd of Nc1nc2c(ncn2[C@@H]2O[C@@H]3CO[P@](=O)(O)O[C@H]4[C@@H](O)[C@H](n5cnc6c(=O)[nH]c(N)nc65)O[C@@H]4CO[P@](=O)(O)O[C@H]3[C@H]2O)c(=O)[nH]1 please.
A. 0.27

* * *

Target: StpA (Salmonella enterica, UniProt P0A1S4, F98Y)
Experiment: Kd measurement (ITC, Supplementary Fig. […]b)
OUTCOME_MEASURE: Kd (nM)
Please give a number only; it is taken to be in nM.

Q. Kd lookup needed for Nc1nc2c(ncn2[C@@H]2O[C@@H]3CO[P@](=O)(O)O[C@H]4[C@@H](O)[C@H](n5cnc6c(=O)[nH]c(N)nc65)O[C@@H]4CO[P@](=O)(O)O[C@H]3[C@H]2O)c(=O)[nH]1 , thanks.
A. 640
